TARGET_SYSTEM: T1, recombinant human PAD4 (human, UniProt Q9UM07 1-663)
T1 construct: also called rhPAD4; hPAD4
T1 sequence (Q9UM07 whole entry): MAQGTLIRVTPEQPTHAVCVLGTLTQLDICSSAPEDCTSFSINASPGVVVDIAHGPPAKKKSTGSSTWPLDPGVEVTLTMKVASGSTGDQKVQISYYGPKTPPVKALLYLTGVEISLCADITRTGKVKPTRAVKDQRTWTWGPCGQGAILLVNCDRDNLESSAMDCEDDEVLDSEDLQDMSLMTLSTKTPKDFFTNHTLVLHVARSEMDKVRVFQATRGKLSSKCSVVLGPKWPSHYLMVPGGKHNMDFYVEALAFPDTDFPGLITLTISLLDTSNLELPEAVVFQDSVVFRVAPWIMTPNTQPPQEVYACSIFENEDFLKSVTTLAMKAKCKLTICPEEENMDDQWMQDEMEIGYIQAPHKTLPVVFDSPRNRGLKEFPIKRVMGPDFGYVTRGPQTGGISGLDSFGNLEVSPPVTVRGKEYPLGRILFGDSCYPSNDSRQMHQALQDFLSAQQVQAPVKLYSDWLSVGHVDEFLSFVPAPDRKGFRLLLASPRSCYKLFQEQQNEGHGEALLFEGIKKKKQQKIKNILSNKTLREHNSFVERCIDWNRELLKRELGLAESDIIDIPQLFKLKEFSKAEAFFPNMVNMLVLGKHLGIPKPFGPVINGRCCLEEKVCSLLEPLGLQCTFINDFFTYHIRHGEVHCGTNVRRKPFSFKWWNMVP
ASSAY: SPR 37 C, captured antibody, PAD4 analyte, 1 mM CaCl2
MEASURED_ATTRIBUTE: pKd
In plain terms, pKd is the concentration in mol/L turned into minus its base-10 logarithm.

Solved cases below.
{"BINDER": "hz20-12 (antibody, V domains shown, light constant region not tied to this antibody) VH: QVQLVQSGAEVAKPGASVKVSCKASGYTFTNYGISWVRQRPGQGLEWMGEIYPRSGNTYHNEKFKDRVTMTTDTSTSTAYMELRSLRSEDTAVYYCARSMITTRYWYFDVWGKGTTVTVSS VL: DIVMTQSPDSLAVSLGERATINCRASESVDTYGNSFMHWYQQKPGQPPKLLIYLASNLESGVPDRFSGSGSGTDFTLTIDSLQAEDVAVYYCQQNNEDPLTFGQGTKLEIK", "pKd": 9.22}
{"BINDER": "hz13-3 (antibody, V domains shown, light constant region not tied to this antibody) VH: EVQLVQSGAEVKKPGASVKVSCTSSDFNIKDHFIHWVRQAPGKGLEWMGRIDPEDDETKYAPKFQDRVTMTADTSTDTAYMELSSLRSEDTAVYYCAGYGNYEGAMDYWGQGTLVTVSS VL: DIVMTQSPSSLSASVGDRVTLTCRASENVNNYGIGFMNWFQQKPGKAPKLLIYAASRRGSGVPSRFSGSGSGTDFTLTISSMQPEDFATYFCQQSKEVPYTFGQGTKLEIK", "pKd": 10.00}

Query binder follows.
Which pKd value belongs to hz20-9 (antibody, V domains shown, light constant region not tied to this antibody) VH: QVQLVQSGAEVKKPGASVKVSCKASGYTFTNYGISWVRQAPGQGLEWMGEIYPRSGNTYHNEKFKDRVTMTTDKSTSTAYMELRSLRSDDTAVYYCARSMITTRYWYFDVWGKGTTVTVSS VL: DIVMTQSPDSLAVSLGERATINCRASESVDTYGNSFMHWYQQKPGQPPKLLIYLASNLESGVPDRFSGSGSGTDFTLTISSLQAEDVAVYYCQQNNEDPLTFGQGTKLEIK ? 9.52
